What LOAEL Neurons EF1α was measured for each of the following?
# Tested on: EF1α promoter
# EXPERIMENTAL_CONTEXT: ESC-derived neurons, 48 h exposure
# Procedure: Dual luciferase expressing CGR8-2Luc cells were obtained by transduction of mouse ESC CGR8 cells with the 2K7 EFS-Renilla Luciferase (RLuc)/Talpha1-Firefly Luciferase (FLuc) vector as previously described (Suter et al. [2006], [2009]); EFS corresponds to the short promoter of the eukaryotic translation elongation factor 1 alpha (EF1α), and Talpha1 to the Tubulin α1 (Tα1) promoter. […] Luciferase activities were measured with a Dual-Luciferase™ Reporter system kit. […]

Challenge: Item under review: COc1cccc2c1C(=O)c1c(O)c3c(c(O)c1C2=O)C[C@@](O)(C(=O)CO)C[C@@H]3O[C@H]1C[C@H](N)[C@H](O)[C@H](C)O1 . Reported LOAEL Neurons EF1α?
Response given: 0.005 µM

Challenge: Would you kindly repeat that for Nc1ccccc1NC(=O)c1ccc(CNC(=O)OCc2cccnc2)cc1 ?
Response given: >50 µM

Challenge: Would you kindly repeat that for N[C@@H](CC(=O)N1CCn2c(nnc2C(F)(F)F)C1)Cc1cc(F)c(F)cc1F ?
Response given: >50 µM

Challenge: Would you kindly repeat that for CCCC(CCC)C(=O)O ?
Response given: 5000 µM

Challenge: Would you kindly repeat that for Cc1[nH]c2ccccc2c1CCNCc1ccc(/C=C/C(=O)NO)cc1 ?
Response given: 50 µM

###

What LOAEL Neurons DNA was measured for each of the following?
# Test system: ESC-derived neurons
# EXPERIMENTAL_CONTEXT: ESC-derived neurons, 48 h exposure, PI assay (cytotoxicity)
# Description: Fig. 1 Synopsis of experimental protocols. The impact of compounds on neural promoter activity (FLuc, Firefly Luciferase under the control of the Tα1 promoter), general promoter activity (RLuc, Renilla Luciferase under the control of the EF1α promoter), and amount of DNA (PI, propidium iodide fluorescence in cell homogenates) was investigated in undifferentiated mouse embryonic pluripotent stem cells (ESCs) and on ESC-derived neurons. […]
Square brackets hold non-standard residues; d marks the D form. Peptide text beside a SMILES is read from it. * marks the point of attachment. Fmoc = O=C(OCC1c2ccccc2-c2ccccc21)*; Cha = N[C@@H](CC1CCCCC1)C(=O)O; AMC = Cc1cc(=O)oc2cc(N*)ccc12

Challenge: Kindly state the measured LOAEL Neurons DNA obtained for CCCc1nn(C)c2c(=O)[nH]c(-c3cc(S(=O)(=O)N4CCN(C)CC4)ccc3OCC)nc12 with ESC-derived neurons.
Response given: >50 µM

Challenge: Would you kindly repeat that for C/C(O)=C(\C#N)C(=O)Nc1ccc(C(F)(F)F)cc1 [Teriflunomide] ?
Response given: >50 µM

Challenge: Would you kindly repeat that for Cc1cc(=O)oc2cc(NC(=O)[C@H](CCCCN)NC(=O)[C@H](CC3CCCCC3)NC(=O)OCC3c4ccccc4-c4ccccc43)ccc12 [Galnon] (Fmoc-[Cha]-Lys-{AMC}) ?
Response given: >20 µM

Challenge: Would you kindly repeat that for CC(C1CC1)C(O)(Cn1cncn1)c1ccc(Cl)cc1 (stereo not shown) ?
Response given: >50 µM

###

# Tested on: Tubulin α1 (Tα1) promoter
# PROCEDURE_SUMMARY: cells
# EXPERIMENTAL_CONTEXT: ESC-derived neurons, 48 h exposure
Square brackets hold non-standard residues; d marks the D form. Peptide text beside a SMILES is read from it. * marks the point of attachment. Fmoc = O=C(OCC1c2ccccc2-c2ccccc21)*; Cha = N[C@@H](CC1CCCCC1)C(=O)O; AMC = Cc1cc(=O)oc2cc(N*)ccc12
What LOAEL Neurons Tα1 was measured for each of the following?
Note: unit µM is implicit; provide only the numeric part.

Challenge: Kindly state the measured LOAEL Neurons Tα1 obtained for CN(C)CCCN1c2ccccc2Sc2ccc(Cl)cc21 [Chlorpromazine] with Tubulin α1 (Tα1) promoter.
Response given: 1

Challenge: Would you kindly repeat that for CCCCc1oc2ccccc2c1C(=O)c1cc(I)c(OCCN(CC)CC)c(I)c1 [Amiodarone] ?
Response given: 50

Challenge: Would you kindly repeat that for Cc1cc(=O)oc2cc(NC(=O)[C@H](CCCCN)NC(=O)[C@H](CC3CCCCC3)NC(=O)OCC3c4ccccc4-c4ccccc43)ccc12 [Galnon] (Fmoc-[Cha]-Lys-{AMC}) ?
Response given: 5

Challenge: Would you kindly repeat that for [Br][Hg][Br] [Mercury bromide] ?
Response given: 10

Challenge: Would you kindly repeat that for CC(C)NCC(O)COc1cccc2ccccc12 (stereo not drawn) [Propranolol] ?
Response given: 50

Challenge: Would you kindly repeat that for [CH3][Sn]([CH3])([CH3])[Cl] [Trimethyltin chloride] ?
Response given: 5
